Target: T1, wild type BMP6 homodimer (Homo sapiens (Human), UniProt P22004 375-513, N-linked glycan at N80 (CHO-produced))
T1 construct: Produced in CHO cells; also called WT BMP6; BMP6/6
T1 sequence: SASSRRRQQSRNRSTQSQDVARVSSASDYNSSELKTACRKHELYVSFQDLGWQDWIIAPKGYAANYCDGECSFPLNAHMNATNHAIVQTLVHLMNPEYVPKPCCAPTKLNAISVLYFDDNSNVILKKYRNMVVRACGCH
Experiment: BLI (Octet), receptor-Fc on anti-human IgG tips
Documented pKd across a set of binders
Please express pKd as -log10 of the molar concentration.

Examples with answers:
BMPRII receptor-human-IgG1-Fc fusion protein (Fc fusion, UniProt Q13873 27-150, looked up, extracellular domain; See note of m11; also called BMPR IIA; BMPRIIA; not shown: human IgG1 Fc) SQNQERLCAFKDPYQQDLGIGESRISHENGTILCSKGSTCYGLWEKSKGDINLVKQGCWSHIGDPQECHYEECVVTTTPPSIQNGTYRFCCCSTDLCNVNFTENFPPPDTTPLSPPHSFNRDET :: 8.40
ALK3 receptor-human-IgG1-Fc fusion protein (Fc fusion, UniProt P36894 24-152, looked up, extracellular domain; See note of m11; also called BMPRIa; not shown: human IgG1 Fc) QNLDSMLHGTGMKSDSDQKKSENGVTLAPEDTLPFLKCYCSGHCPDDAINNTCITNGHCFAIIEEDDQGETTLASGCMKYEGSDFQCKDSPKAQLRRTIECCRTNLCNQYLQPTLPPVVIGPFFDGSIR :: 7.96
ActRIIB receptor-human-IgG1-Fc fusion protein (Fc fusion, UniProt Q13705 19-137, looked up, extracellular domain; See note of m11; also called ATRIIB; not shown: human IgG1 Fc) SGRGEAETRECIYYNANWELERTNQSGLERCEGEQDKRLHCYASWRNSSGTIELVKKGCWLDDFNCYDRQECVATEENPQVYFCCCEGNFCNERFTHLPEAGGPEVTYEPPPTAPTLLT :: 9.30

Report pKd for ALK6 receptor-human-IgG1-Fc fusion protein (Fc fusion, UniProt O00238 14-126, looked up, extracellular domain; See note of m11; also called BMPRIb; not shown: human IgG1 Fc) KKEDGESTAPTPRPKVLRCKCHHHCPEDSVNNICSTDGYCFTMIEEDDSGLPVVTSGCLGLEGSDFQCRDTPIPHQRRSIECCTERNECNKDLHPTLPPLKNRDFVDGPIHHR please.
7.70
